Values were extracted from patent CN116693676A.

molecular target: 肺炎支原体天然抗原(购自Microbix) (Mycoplasma pneumoniae); assay: indirect ELISA, antigen coated at 2 ug/ml, antibody 0.94 ng/ml
Quick reference: OD450 (参考630nm) of the listed items.
// note: answer is a bare numeric in OD

In the examples that follow, each entry is paired with its recorded OD450 (参考630nm).
Anti-MP-22A9mut5 (antibody, mouse IgG1, kappa, V domains shown) VH: QAYLQQSGAELVRSGASVKMSCKASGYTFTTYNMHWVKQTPGQGLEWIGYVHPGYGITYYSQKFKGKATLTADTSSSTAYMLLSSITSEDSAVYFCTRSYYGYSYWFFDVWGAGTTVTVSS VL: NIVMTQSPKSVSMSVGERVTLNCKASENVGSYVAWYQQKPDRSPKLLIHGASNRYTGVPDRFTGSGSTTDFTITISSVQAEDLADYHCGQTYNYPYTFGGGTKLEIKR
0.315
Anti-MP-22A9mut2 (antibody, mouse IgG1, kappa, V domains shown) VH: QAYLQQSGAELVRSGASVKMSCKASGYTFTTYNMHWVKQTPGQGLEWIGYVHPGYGITYYSQKFKGKATLTADTSSSTAYMLLSSLTSEDSAVYFCTRSYYGYSYWFFDVWGAGTTVTVSS VL: NIVMTQSPKSVSMSVGERVTLNCKASENVGSYVAWYQQKPDRSPKLLIHGASNRYTGVPDRFTGSGSTTDFTLTISSVQAEDLADYHCGQTYNYPYTFGGGTKLEIKR
0.386
Anti-MP-22A9mut1 (antibody, mouse IgG1, kappa, V domains shown) VH: QAYLQQSGAELVRSGASVKMSCKASGYTFTTYNMHWVKQTPGQGLEWIGYVHPGYGITYYSQKFKGKATLTADTSSSTAYMILSSLTSEDSAVYFCTRSYYGYSYWFFDVWGAGTTVTVSS VL: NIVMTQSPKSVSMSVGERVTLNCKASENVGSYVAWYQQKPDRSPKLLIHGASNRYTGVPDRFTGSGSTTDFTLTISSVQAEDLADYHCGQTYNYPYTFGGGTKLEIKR
0.205
Anti-MP-22A9mut4 (antibody, mouse IgG1, kappa, V domains shown) VH: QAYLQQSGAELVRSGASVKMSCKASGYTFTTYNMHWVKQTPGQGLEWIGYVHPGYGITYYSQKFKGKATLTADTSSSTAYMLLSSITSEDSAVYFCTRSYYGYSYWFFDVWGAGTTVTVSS VL: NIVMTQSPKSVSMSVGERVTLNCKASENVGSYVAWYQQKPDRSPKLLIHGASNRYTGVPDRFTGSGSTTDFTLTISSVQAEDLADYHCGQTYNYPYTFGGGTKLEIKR
0.207
Anti-MP-22A9mut6 (antibody, mouse IgG1, kappa, V domains shown) VH: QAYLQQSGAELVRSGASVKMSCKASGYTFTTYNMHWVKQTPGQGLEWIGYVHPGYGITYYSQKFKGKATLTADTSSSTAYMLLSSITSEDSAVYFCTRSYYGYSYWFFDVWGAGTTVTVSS VL: NIVMTQSPKSVSMSVGERVTLNCKASENVGSYVAWYQQKPDRSPKLLIHGASNRYTGVPDRFTGSGSTTDFTLTLSSVQAEDLADYHCGQTYNYPYTFGGGTKLEIKR
0.207

Continue with the binder presented below.
Fill blank: measured OD450 (参考630nm) of the binder Anti-MP-22A9mut3 (antibody, mouse IgG1, kappa, V domains shown) VH: QAYLQQSGAELVRSGASVKMSCKASGYTFTTYNMHWVKQTPGQGLEWIGYVHPGYGITYYSQKFKGKATITADTSSSTAYMLLSSLTSEDSAVYFCTRSYYGYSYWFFDVWGAGTTVTVSS VL: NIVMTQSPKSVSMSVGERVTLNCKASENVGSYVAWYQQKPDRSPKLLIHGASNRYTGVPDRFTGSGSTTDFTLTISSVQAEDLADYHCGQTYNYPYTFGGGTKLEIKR is ____.
0.359
